# target system: BpGH3-AR8MLG (Blautia producta)
# Sequence (A0ABX6J8C8 entry or part of it): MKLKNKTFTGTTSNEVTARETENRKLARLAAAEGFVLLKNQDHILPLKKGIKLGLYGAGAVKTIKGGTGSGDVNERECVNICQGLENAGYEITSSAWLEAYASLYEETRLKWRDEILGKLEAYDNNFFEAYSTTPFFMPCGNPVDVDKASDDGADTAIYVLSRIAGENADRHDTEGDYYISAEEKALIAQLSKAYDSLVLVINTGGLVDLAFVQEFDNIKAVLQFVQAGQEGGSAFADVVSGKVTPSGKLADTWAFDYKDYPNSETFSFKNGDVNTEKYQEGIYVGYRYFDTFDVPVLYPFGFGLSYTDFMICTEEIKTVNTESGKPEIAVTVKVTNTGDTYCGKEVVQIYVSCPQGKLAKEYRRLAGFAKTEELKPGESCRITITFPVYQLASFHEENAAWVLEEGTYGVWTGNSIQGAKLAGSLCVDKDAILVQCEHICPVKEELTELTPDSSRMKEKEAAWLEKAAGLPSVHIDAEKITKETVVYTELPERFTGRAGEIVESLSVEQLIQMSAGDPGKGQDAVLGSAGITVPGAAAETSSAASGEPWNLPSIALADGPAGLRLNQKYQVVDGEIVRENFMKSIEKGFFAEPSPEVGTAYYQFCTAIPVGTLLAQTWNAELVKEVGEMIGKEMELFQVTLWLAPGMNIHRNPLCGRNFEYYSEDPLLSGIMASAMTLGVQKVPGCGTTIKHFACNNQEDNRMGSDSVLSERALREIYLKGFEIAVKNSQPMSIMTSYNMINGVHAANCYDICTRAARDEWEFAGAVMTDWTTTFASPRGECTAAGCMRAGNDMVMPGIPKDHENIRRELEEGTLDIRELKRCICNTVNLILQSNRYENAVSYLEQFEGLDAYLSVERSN
# Assay type: biochemical, Blautia producta ATCC 27340
# particulars: PAHBAH assay; 100 mM HEPES pH 6.5, 37 °C
Record form. Attribute: kcat. Fill in for each entry.
Kindly answer with a numeric value in s⁻¹, unit omitted.

# molecule OC[C@H]1O[C@@H](O[C@H]2[C@H](O)[C@@H](O)[C@H](O[C@H]3[C@H](O)[C@@H](O)C(O)O[C@@H]3CO)O[C@@H]2CO)[C@H](O)[C@@H](O)[C@@H]1O (stereo partly shown) ; its kcat = 15

Reported kcat for `O=C[C@H](O)[C@@H](O)[C@H](O[C@@H]1O[C@H](CO)[C@@H](O)[C@H](O)[C@H]1O)[C@H](O)CO` was 8

For record OC[C@H]1O[C@@H](O[C@H]2[C@H](O)[C@@H](CO)OC(O)[C@@H]2O)[C@H](O)[C@@H](O)[C@@H]1O (stereo partly shown) the listed kcat is 12

Field kcat (entry OC[C@H]1O[C@@H](O[C@H]2[C@H](O)[C@@H](O)[C@H](O[C@H]3[C@H](O)[C@@H](O)[C@H](O[C@H]4[C@H](O)[C@@H](O)C(O)O[C@@H]4CO)O[C@@H]3CO)O[C@@H]2CO)[C@H](O)[C@@H](O)[C@@H]1O (stereo partly shown) ) reads 20

---

# target system: UniProt:A0ABX6JB09
# Sequence (A0ABX6JB09 entry or part of it): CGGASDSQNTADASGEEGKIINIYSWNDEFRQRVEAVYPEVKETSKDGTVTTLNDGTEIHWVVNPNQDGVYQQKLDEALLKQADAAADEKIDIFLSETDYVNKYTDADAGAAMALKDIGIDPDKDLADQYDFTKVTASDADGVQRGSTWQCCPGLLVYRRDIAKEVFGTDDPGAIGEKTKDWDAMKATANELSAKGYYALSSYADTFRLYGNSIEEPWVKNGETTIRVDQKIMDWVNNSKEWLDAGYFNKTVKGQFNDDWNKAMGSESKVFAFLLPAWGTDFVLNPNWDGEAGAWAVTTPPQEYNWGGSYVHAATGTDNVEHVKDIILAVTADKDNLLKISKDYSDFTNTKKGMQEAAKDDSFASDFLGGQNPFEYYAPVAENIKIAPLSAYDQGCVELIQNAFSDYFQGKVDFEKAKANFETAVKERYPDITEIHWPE
# method description: Isothermal titration calorimetry of oligosaccharide binding to BpSBPMLG
# Design: species or system Blautia producta ATCC 27340
# particulars: ITC at 25 °C, 10 mM sodium phosphate pH 7.0
Field 'label' (enum: class 1 / class 0). Set to class 1 when n (binding stoichiometry) is strictly under 0.8; else class 0.

Request: Please check: n (binding stoichiometry) for OC[C@H]1O[C@@H](O[C@H]2[C@H](O)[C@@H](CO)OC(O)[C@@H]2O)[C@H](O)[C@@H](O)[C@@H]1O (stereo partly drawn) , strictly under 0.8 or not?
Result: class 0

Request: Take the compound OC[C@H]1O[C@@H](O[C@@H]2[C@@H](O)[C@H](O[C@H]3[C@H](O)[C@@H](CO)OC(O)[C@@H]3O)O[C@H](CO)[C@H]2O)[C@H](O)[C@@H](O)[C@@H]1O (stereo partly drawn) and say whether its n (binding stoichiometry) is less than 0.8.
Result: class 0

Request: API: query returns whether the compound falls strictly under 0.8 in n (binding stoichiometry). Query: OC[C@H]1O[C@@H](O[C@H]2[C@H](O)[C@@H](O)[C@H](O[C@H]3[C@H](O)[C@@H](CO)OC(O)[C@@H]3O)O[C@@H]2CO)[C@H](O)[C@@H](O)[C@@H]1O (stereo partly drawn)
Result: class 1

Request: Lab note: confirm whether the reported n (binding stoichiometry) for this compound is below 0.8, equality not counting. compound: OC[C@H]1O[C@@H](O[C@H]2[C@H](O)[C@@H](O)[C@H](O[C@H]3[C@H](O)[C@@H](O)C(O)O[C@@H]3CO)O[C@@H]2CO)[C@H](O)[C@@H](O)[C@@H]1O (stereo partly drawn)
Result: class 1

Request: Decide: n (binding stoichiometry) of OC[C@H]1O[C@@H](O[C@H]2[C@H](O)[C@@H](O)[C@H](O[C@H]3[C@H](O)[C@@H](O)[C@H](O[C@H]4[C@H](O)[C@@H](O)C(O)O[C@@H]4CO)O[C@@H]3CO)O[C@@H]2CO)[C@H](O)[C@@H](O)[C@@H]1O (stereo partly drawn) strictly below 0.8?
Result: class 1
